Just for reference, PubChem BioAssay (NCI) is where these values come from.

# assayInfo: NCI Yeast Anticancer Drug Screen. Data for the sgs1 mgt1 strain (AID 161)
# assayContext: S. cerevisiae sgs1 mgt1 strain, at 50.0 µM, stronger effect = higher value
About 79,000 compounds went through this panel and 15% of them were active in at least one assay; those are over-represented in the sample as a whole.
Tick y if growth inhibition is 90% or greater. Tick n if growth inhibition is less than 90%.

The following compounds have reported results that may help.
1. O=S(Nc1ccccc1Br)c1ccccc1 (configuration not stated) | n
2. Clc1nc(Cl)nc(N2CCCc3ccccc32)n1 | n
3. O=P(C(=S)Nc1ccccc1Cl)(c1ccccc1)c1ccccc1 | y
4. O=C1Nc2c(Cl)cc(Cl)cc2/C1=N/N=C/c1ccco1 | n
5. CN(C)C1C[C@@H](O[Si](C)(C)C(C)(C)C)C=C1S(=O)(=O)c1ccccc1 (some centres not stated) | n

Alright, here's another compound for you.
(Q) // inclusive: growth inhibition at least 90%? input: CC1NS(=O)(=O)N(C)C1=O (configuration not stated)
(A) n
